Source listed as ChEMBL document CHEMBL6092142.

Experiment: Half life in CD-1 mouse at 2 mg/kg, iv
Type: ADME, organism-based
Conditions: CD-1, mouse, in vivo
Documented half-life across a set of molecules
Answer by giving the amount and then stating its unit.

INSERT INTO measurements (smiles, measure, test_result) VALUES
  ('Cn1cc(-c2c(Cl)cnc3[nH]c(C4CCNCC4)cc23)cn1', 'half-life', '88.2 min');

Now examine the next entry.
Quick one: half-life for CC(=O)N[C@@H]1CCC[C@H](C(=O)Nc2cc(-c3cnn4c3CC(C)(C)C4)c(Cl)cn2)C1 ?
6 min

* * *

Test: Metabolic stability in monkey hepatocytes assessed as half life
Format: ADME, cell-based, Macaca mulatta, Hepatocyte
Details: rhesus monkey
MEASURE: half-life
Answer by giving the amount and then stating its unit.

Quick one: half-life for Cn1cc(-c2c(Cl)cnc3[nH]c(C4CCNCC4)cc23)cn1 ?
4.4 h

* * *

Assay: Metabolic stability in mouse hepatocytes assessed as half life
Assay type: ADME, cell-based, Hepatocyte
MEASURE: half-life (h)
# value in h; strip the unit string

Quick one: half-life for Cn1cc(-c2c(Cl)cnc3[nH]c(C4CCNCC4)cc23)cn1 ?
1.35
